- EXPERIMENTAL_DETAILS: Selectivity index, ratio of compound concentration for cell killing activity in human 184B5 cells to compound concentration for cell killing activity in human BT474 cells
- Format: toxicity, cell-based
- RUN_PARAMETERS: 184B5 cells versus BT474 cells, read-out: Selectivity Index
RESULT_TYPE: selectivity ratio

Query :: Assign selectivity ratio to the following record: COc1ccc2nc3cc(Cl)ccc3c(NCCCN3C(=O)CCSC3c3cccs3)c2c1 (stereo unspecified)
Result :: 3 to 6

---

- EXPERIMENTAL_DETAILS: Selectivity index, ratio of compound concentration for cell killing activity in human MCF10A cells to compound concentration for cell killing activity in human BT20 cells
- Assay type: toxicity, cell-based
- RUN_PARAMETERS: MCF10A cells versus BT20 cells, read-out: Selectivity Index
RESULT_TYPE: selectivity ratio

Query :: Assign selectivity ratio to the following record: COc1ccc2nc3cc(Cl)ccc3c(NCCCN3C(=O)CCSC3c3cccs3)c2c1 (stereo unspecified)
Result :: 3 to 6
